# tested-target: Free fatty acid receptor 1 (Homo sapiens)
# Sequence (O14842 whole entry): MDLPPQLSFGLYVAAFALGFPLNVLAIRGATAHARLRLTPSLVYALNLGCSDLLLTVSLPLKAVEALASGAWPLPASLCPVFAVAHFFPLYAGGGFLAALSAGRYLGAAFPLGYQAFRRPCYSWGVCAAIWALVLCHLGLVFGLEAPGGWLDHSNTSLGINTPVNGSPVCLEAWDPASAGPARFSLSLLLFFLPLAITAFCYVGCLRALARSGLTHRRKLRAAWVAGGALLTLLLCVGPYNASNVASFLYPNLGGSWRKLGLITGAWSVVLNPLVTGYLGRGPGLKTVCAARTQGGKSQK
# test-details: Agonist activity at human GPR40 expressed in CHO cells assessed as calcium flux measured for 20 secs by aequorin assay relative to (+/-)-3-(4-[(4-methoxyphenyl)methoxy]phenyl)-hex-4-ynoic acid
# Format: functional, cell-based
measured-property: Emax (%)

compound	Emax [%]
CC#C[C@H](CC(=O)O)c1ccc(OCc2ccc(OC)cc2)cc1	93

a: CC#CC(CC(=O)O)c1ccc(OCCc2ccccc2)cc1 (stereo unspecified)
b: COc1ccc(COc2ccc(C(CC(=O)O)=C(C)C)cc2)cc1
Returns the identifier with the smallest measured Emax among a and b . Record your answer as the label of the chosen record.
b
(b: 82%, a: 126%)
